- STUDY_TARGET: GSK3β (Homo sapiens, UniProt P49841)
- Sequence (P49841 whole entry, species assumed): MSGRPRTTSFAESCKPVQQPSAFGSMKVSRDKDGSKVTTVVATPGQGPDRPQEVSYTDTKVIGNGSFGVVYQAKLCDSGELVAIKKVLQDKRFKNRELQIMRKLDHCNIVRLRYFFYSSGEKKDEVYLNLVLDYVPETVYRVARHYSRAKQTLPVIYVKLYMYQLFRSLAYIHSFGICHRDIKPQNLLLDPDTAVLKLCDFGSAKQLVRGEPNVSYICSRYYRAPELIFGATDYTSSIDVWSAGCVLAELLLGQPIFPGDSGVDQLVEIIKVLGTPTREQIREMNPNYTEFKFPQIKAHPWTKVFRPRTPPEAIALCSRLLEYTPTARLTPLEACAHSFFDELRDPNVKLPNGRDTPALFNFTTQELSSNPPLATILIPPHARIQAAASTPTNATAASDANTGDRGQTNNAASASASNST
- PROTOCOL_SUMMARY: GSK3β kinase assay (Caliper LabChip3000 mobility shift, fluoresceinated peptide substrate)
- Type: biochemical
- DETAILS: 250 pM enzyme, 20 uM ATP, 1.5 uM peptide, 20 hours room temperature; first value of cell GSK3β/GSK3α; read-out: GSK3β (nM), IC50
Quick rule for you: IC50 under 1 nM gets yes, anything else gets no.

| COMPOUND | GROUP |
| --- | --- |
| O=C(Nc1cncc(-c2ccccc2F)c1)c1ccnc(Nc2ccc(OC(F)F)nc2)n1 | no |
| O=C(Nc1cnc(F)cc1N1CCC(F)(F)CC1)c1ccnc(NC2CCOCC2)n1 | no |
| O=C(Nc1cnc(F)cc1N1CCOCC1)c1ccnc(Nc2ccc(Cl)cc2)n1 | yes |
| N#Cc1ccc(Nc2nccc(C(=O)Nc3cnccc3-c3ccccc3)n2)c(Cl)c1 | no |
| O=C(Nc1cnccc1OCC(F)(F)F)c1ccnc(Nc2ccc(C(F)(F)F)cc2)n1 | yes |
| O=C(Nc1cnccc1-c1ccc(F)cc1)c1ccnc(Nc2ccccc2)n1 | yes |
| O=C(Nc1cnccc1-c1ccccc1)c1ccnc(NC2CCCOC2)n1 (stereo not drawn) | no |
| CC(Nc1nccc(C(=O)Nc2cnccc2OCC(F)(F)F)n1)c1ccccc1 (stereo not drawn) | no |
| O=C(Nc1cncc(-c2ccccc2F)c1)c1ccnc(Nc2cccc(OC(F)(F)F)c2)n1 | no |
| Cc1nc(OC(F)F)ccc1Nc1nccc(C(=O)Nc2cnccc2-c2ccccc2)n1 | no |
| N#Cc1ccc(Nc2nccc(C(=O)Nc3cnccc3-c3ccccc3)n2)c(F)c1 | yes |
| O=C(Nc1cnccc1-c1ccccc1)c1ccnc(Nc2c(F)cc(Cl)cc2F)n1 | no |
| O=C(Nc1cnccc1-c1ccccc1)c1ccnc(Nc2ccncc2)n1 | no |
| O=C(Nc1cnccc1-c1ccccc1)c1ccnc(Nc2ccc(C(F)(F)F)nc2)n1 | no |
| O=C(Nc1cnc(F)cc1N1CCC(F)(F)CC1)c1ccnc(Nc2ccc(OC(F)F)cc2)n1 | no |
| COc1ccc(Nc2nccc(C(=O)Nc3cnccc3-c3ccccc3)n2)cc1F | yes |
| CC(C)OCCCNc1nccc(C(=O)Nc2cnccc2OCC(F)(F)F)n1 | no |
| CNc1nccc(C(=O)Nc2cnccc2-c2ccc(F)cc2F)n1 | no |
